This collection of values is drawn from patent US20180009892A1.

Listed below: kon values for each entry.
# target: T1, ROR1 extracellular domain Fc-fusion, dimer (human, UniProt Q01973 30-406)
# T1 construct: also called ROR1 dimer; hROR1 dimeric ECD-Fc fusion protein; not shown: Fc part
# T1 sequence (Q01973 30-406): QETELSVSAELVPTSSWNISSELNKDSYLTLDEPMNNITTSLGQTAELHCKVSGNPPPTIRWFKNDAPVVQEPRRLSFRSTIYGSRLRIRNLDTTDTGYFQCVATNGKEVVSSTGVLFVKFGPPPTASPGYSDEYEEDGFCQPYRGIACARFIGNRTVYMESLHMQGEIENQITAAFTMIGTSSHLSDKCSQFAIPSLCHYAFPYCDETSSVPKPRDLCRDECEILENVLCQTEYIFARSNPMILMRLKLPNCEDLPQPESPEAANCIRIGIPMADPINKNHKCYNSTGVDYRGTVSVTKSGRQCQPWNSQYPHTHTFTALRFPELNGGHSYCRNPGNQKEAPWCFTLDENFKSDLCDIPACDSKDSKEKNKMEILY
# procedure.summary: SPR, immobilised ROR1 dimer, antibody injected, 1:1 model
Quick note: give the figure in M⁻¹ s⁻¹, leave out the unit.

Antibody 601-28 (antibody, V domains shown) VH: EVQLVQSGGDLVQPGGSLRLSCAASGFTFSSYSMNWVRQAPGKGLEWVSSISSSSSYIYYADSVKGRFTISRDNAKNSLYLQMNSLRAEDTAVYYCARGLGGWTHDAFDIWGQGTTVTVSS VL: QSALTQPASVSGSPGQSITISCTGTSSDVGGYNYVSWYQQHPGKAPKLMIFDVSNRPSGVSNRFSGSKSGNTASLTISGLQAEDEADYYCSSYTSSSTLFGGGTKLTVL
340000
Antibody 601-65 (antibody, V domains shown) VH: QVQLQQSGPGLVKPSQTLSLTCAISGDSVSSNSATWNWIRQSPSRGLEWLGRTYYRSKWYNDYAVSVKSRIIINPDTSKNQFSLQLNSVTPEDTAVYYCARGVRAFDIWGQGTTVTVSS VL: QSVLTQPPSVSGTPGQRVTIFCSGGSNNIGRSSVYWYRQAAGTAPKLLIYKTDQRPSGVPDRFAASKSGASASLAISGLRSEDEADYHCATWDDSLSAVVFGGGTKLTVL
1.1e+06
Antibody 601-112 (antibody, V domains shown) VH: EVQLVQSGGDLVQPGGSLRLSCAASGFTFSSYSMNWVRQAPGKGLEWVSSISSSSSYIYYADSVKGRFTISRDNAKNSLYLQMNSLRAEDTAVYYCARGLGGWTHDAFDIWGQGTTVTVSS VL: QSALTQPASVSGSPGQSITISCTGTSSDVGGYNYVSWYQQHPGKAPKLMIYDVSKRPSGVSNRFSGSKSGNTASLTISGLQAEDEADYYCSSYTGRSTVFGGGTKLTVL
340000
Antibody 601-100 (antibody, V domains shown) VH: EVQLVQSGGGVVQPGGPLRLSCAASGFTFSSYSMNWVRQAPGKGLEWVSSISSSSSYIYYADSVKGRFTISRDNAKNSLYLQMNSLRAEDTAVYYCARGLGGWTHDAFDIWGQGTMVTVSS VL: QSALTQPASVSGSPGQSITISCTGTSRDVGGYDYVSWYQQYPGNAPKLMIYDVSRRPSGVSHRFSASKSGNTASLTISGLQTEDEADYYCSSYTSSSTRVFGGGTKVTVL
440000

Read the next record carefully.
What the record says about Antibody 601-130 (antibody, V domains shown) VH: EVQLVETGGGLVKPGGSLRLSCEASGFSLSSYSMNWVRQAPGKGLEWVSSISSSSTHIYYADSLKGRFTISRDNAKNSLFLQMDNLRAEDTAVYYCARATIGFDYWGQGTLVTVSS VL: QSVLTQPPSVSGAPGQRVTISCTGSSSNIGAGYDVHWYQQLPGTAPKLLIYGNSNRPSGVPDRFSGSKSGTSASLAITGLQAEDEADYYCQSYDSSLSGYVFGTGTKLTVL : kon is 520000
